# test-description: Stability in simulated gastric fluid
# Type: in vitro ADME
# test-settings: 2 μM peptidomimetic, simulated gastric fluid pH 1.5, 37° C., 24 h
Recorded measurements of % degradation of peptidomimetics in 24 h when incubated with simulated gastric fluid, one per entry
endpoint-label: % degradation of peptidomimetics in 24 h when incubated with simulated gastric fluid (%)

# molecule, data-value
measured = [
    ("CCc1cc(OC)ccc1-c1ccc(CC(NC(=O)[C@H](CC(=O)O)NC(=O)[C@H](CO)NC(=O)[C@@H](NC(=O)C(C)(Cc2ccccc2F)NC(=O)[C@@H](NC(=O)CNC(=O)[C@H](CC(C(F)(F)F)C(F)(F)F)NC(=O)C(C)(C)NC(=O)[C@H](Cc2c[nH]cn2)NC(C)=O)[C@@H](C)O)[C@@H](C)O)C(=O)NC(CCCc2ccccc2)C(N)=O)cc1 (single isomer, unassigned)", 100),
    ("CCc1cc(OC)ccc1-c1ccc(CC(NC(=O)[C@H](CC(=O)O)NC(=O)[C@H](CO)NC(=O)[C@@H](NC(=O)C(C)(Cc2ccccc2F)NC(=O)[C@@H](NC(=O)CNC(=O)C(CCC#N)NC(=O)C(C)(C)NC(=O)[C@@H](N)Cc2c[nH]cn2)[C@H](C)O)[C@H](C)O)C(=S)NC(CCCc2ccccc2F)C(N)=O)cc1 (single isomer, unassigned)", 12),
    ("CCc1cc(OC)ccc1-c1ccc(CC(NC(=O)[C@H](CC(=O)O)NC(=O)[C@H](CO)NC(=O)[C@@H](NC(=O)[C@H](Cc2ccccc2)NC(=O)[C@@H](NC(=O)CNC(=O)C(CCC#N)NC(=O)C(C)(C)NC(=O)[C@@H](N)Cc2c[nH]cn2)[C@@H](C)O)[C@@H](C)O)C(=O)NC(CCCc2ccccc2)C(N)=O)cc1 (single isomer, unassigned)", "00"),
]

meta.source: patent US8883963B2
